molecular target: RXRγ; test: ligand binding assay, RXRγ; conditions: read-out: RXR Bind Ki γ
Reported Ki values for the following molecules.

As a guide, the following entries are already answered.
SMILES_CODE: CCN(c1ccc(C(=O)O)cc1)c1ccc2c(c1)C(C)(C)OC2(C)C
Ki: > 1 µM

SMILES_CODE: CC(C)N(c1ccc(C(=O)O)cc1)c1cc(C(C)(C)C)c2c(c1)C(C)(C)CO2
Ki: 0.344 µM

SMILES_CODE: CCc1cc(N(CC)c2ccc(C(=O)O)cc2)cc2c1OCC2(C)C
Ki: > 1 µM

SMILES_CODE: CCc1cc(N(C)c2ccc(C(=O)O)cc2)cc2c1OCC2(C)C
Ki: > 10 µM

SMILES_CODE: CCN(c1ccc(C(=O)O)cc1)c1cc(C)c2c(c1)C(C)(C)CO2
Ki: > 100 µM

SMILES_CODE: Cc1cc(N(c2ccc(C(=O)O)cc2)C(C)C)cc2c1OCC2(C)C
Ki: > 100 µM

SMILES_CODE: CC(C)N(c1ccc(C(=O)O)cc1)c1ccc2c(c1)C(C)(C)OC2(C)C
Ki: 2.1 µM

SMILES_CODE: CCCCN(c1ccc(C(=O)O)cc1)c1ccc2c(c1)C(C)(C)OC2(C)C
Ki: > 1 µM

SMILES_CODE: CC(C)c1cc(N(C)c2ccc(C(=O)O)cc2)cc2c1OCC2(C)C
Ki: > 10 µM

SMILES_CODE: Cc1c(N(c2ccc(C(=O)O)cc2)C(C)C)cc2c(c1C(C)(C)C)OCC2(C)C
Ki: 0.236 µM

Recorded Ki for CCN(c1ccc(C(=O)O)cc1)c1cc(C(C)(C)C)c2c(c1)C(C)(C)CO2 , please?
0.672 µM

Recorded Ki for CCc1cc(N(c2ccc(C(=O)O)cc2)C(C)C)cc2c1OCC2(C)C , please?
> 1 µM

Recorded Ki for CCN(c1ccc(C(=O)O)cc1)c1cc(C(C)C)c2c(c1)C(C)(C)CO2 , please?
4.1 µM

Recorded Ki for CCCN(c1ccc(C(=O)O)cc1)c1ccc2c(c1)C(C)(C)OC2(C)C , please?
> 1 µM

Recorded Ki for Cc1cc(N(C)c2ccc(C(=O)O)cc2)cc2c1OCC2(C)C , please?
> 100 µM
